System: SN12C renal
Test: NCI-60 one-dose screen, 48 h (100 = growth as untreated, 0 = no growth, -100 = all killed)
Details: 10 µM unless noted
Compounds without any hit were thinned out: in the full panel of roughly 83,000, 20% have a hit.
As shown below, each of these molecules has a reported growth value.
Answer in %, number only, no unit symbol.

>  <Molecule>
O=C(O)c1ccc(-c2ccc(/C=N/NC(=O)c3[nH]c4ccc(Br)cc4c3-c3ccccc3)o2)cc1

>  <Unit Symbol>
%

>  <Readout Number>
5.99

$$$$
>  <Molecule>
Cc1cc(N=C2NC(=O)CS2)n[nH]1

>  <Unit Symbol>
%

>  <Readout Number>
101

$$$$
>  <Molecule>
CCN(CC)c1ccc(/C=N/Nc2nc(-c3ccc(C)cc3)cs2)c(O)c1

>  <Unit Symbol>
%

>  <Readout Number>
99.7

$$$$

Please find the next molecule below.
Which growth is listed for C#CCOc1cc(N(CC)CC)ccc1C(C(=O)NC(C)(C)C)N(C(=O)C1CCc2cc(F)ccc2O1)c1ccc(F)c(Cl)c1 (centres undefined) ?
55.8
